# testedTarget: T1, CD33 (immobilized on CM5 sensor chip) (UniProt P20138 18-259, limits assumed)
# T1 construct: also called CD33 antigen
# T1 sequence (P20138 18-259 limits assumed): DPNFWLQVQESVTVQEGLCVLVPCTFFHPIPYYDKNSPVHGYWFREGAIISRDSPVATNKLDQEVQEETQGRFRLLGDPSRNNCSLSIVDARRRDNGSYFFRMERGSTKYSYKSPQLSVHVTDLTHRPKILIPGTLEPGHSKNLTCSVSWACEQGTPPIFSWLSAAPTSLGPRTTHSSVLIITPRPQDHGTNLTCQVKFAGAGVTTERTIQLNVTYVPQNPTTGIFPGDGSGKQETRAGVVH
# assayOverview: SPR (Biacore T-200), CD33 immobilized on CM5 chip
Listing: koff of selected binders
Kindly provide the numeric value in s⁻¹ only, without the unit symbol.

binder	koff (s⁻¹)
humanized HIM34 BsAb L3H4 (bispecific antibody, human IgG1, V domains shown, Tested as a humanized HIM34×CD3 BsAb in the IgG-scFv format: human IgG1 with N297A/K322A, humanized OKT3 scFv on the light chain C-terminus via (G4S)3) VH: QVQLVQSGAEVKKPGASVKVSCKASGYSFTDYNMYWVRQAPGQGLEWIGYIDPYKGGTNYAQKFQGRATLTVDKSSSTAYMELSRLRSDDTAVYYCAREMITAYYFDYWGQGSSVTVSS VL: DIQMTQSPSSLSASVGDRVTITCKASQDINKYIAWYQHKPGKAPKLLIHYTSTLETGVPSRFSGSGSGTDFTFTISSLQPEDIATYYCLQYDNLLTFGAGTKLELK	0.00175
humanized HIM34 BsAb L4H7 (bispecific antibody, human IgG1, V domains shown, Tested as a humanized HIM34×CD3 BsAb in the IgG-scFv format (human IgG1 N297A/K322A, humanized OKT3 scFv on the light chain)) VH: QVQLQQSGAEVKKPGASVKVSCKASGYSFTDYNMYWVRQAPGQGLEWIGYIDPYKGGTIYNQKFKGRATLTRDTSISTAYMELSRLRSDDTAVYYCAREMITAYYFDYWGQGSSVTVSS VL: DIQMTQSPSSLSASVGDRVTITCKASQDINKYIAWYQHKPGKAPKLLIYYASNLQPGVPSRFSGSGSGRDFTFTISSLQPEDIATYYCLQYDNLLTFGAGTKLELK	0.00017
humanized HIM34 BsAb L4H4 (bispecific antibody, human IgG1, V domains shown, Tested as a humanized HIM34×CD3 BsAb in the IgG-scFv format (human IgG1 N297A/K322A, humanized OKT3 scFv on the light chain)) VH: QVQLVQSGAEVKKPGASVKVSCKASGYSFTDYNMYWVRQAPGQGLEWIGYIDPYKGGTNYAQKFQGRATLTVDKSSSTAYMELSRLRSDDTAVYYCAREMITAYYFDYWGQGSSVTVSS VL: DIQMTQSPSSLSASVGDRVTITCKASQDINKYIAWYQHKPGKAPKLLIYYASNLQPGVPSRFSGSGSGRDFTFTISSLQPEDIATYYCLQYDNLLTFGAGTKLELK	0.00743

response.value for humanized HIM34 BsAb L4H1 (bispecific antibody, human IgG1, V domains shown, Tested as a humanized HIM34×CD3 BsAb in the IgG-scFv format (human IgG1 N297A/K322A, humanized OKT3 scFv on the light chain)) VH: QVQLQQSGAEVVKPGASVKVSCKASGYSFTDYNMYWVRQAPGQGLEWIGYIDPYKGGTNYAQKFQGRVTMTVDKSSSTAYMELSRLRSDDTAVYYCAREMITAYYFDYWGQGSSVTVSS VL: DIQMTQSPSSLSASVGDRVTITCKASQDINKYIAWYQHKPGKAPKLLIYYASNLQPGVPSRFSGSGSGRDFTFTISSLQPEDIATYYCLQYDNLLTFGAGTKLELK (field: koff) = 0.00597
